Test: Cytotoxicity against human MKN-28 cells assessed as inhibition of cell growth
Type: toxicity, cell-based
measured property: IC50 (µg/mL)
Write the answer as a number in µg/mL, unit excluded.

The measured IC50 associated with S=C=NCCn1ccc2ccccc21 reads 2

###

Test: Cytotoxicity against human HepG2 cells assessed as inhibition of cell growth
Assay type: toxicity, cell-based
measured property: IC50 (µg/mL)
Your answer is read as µg/mL, so omit the unit and give the number.

Briefly, IC50 measured for S=C=NCCn1ccc2ccccc21 : 2

###

Assay: Cytotoxicity against human PC-3 cells assessed as inhibition of cell growth
Assay type: toxicity, cell-based
measured property: IC50 (µM)
Your answer is read as µM, so omit the unit and give the number.

IC50 for O=[N+]([O-])c1ccc(C(c2c[nH]c3ccc(Br)cc23)c2c[nH]c3ccc(Br)cc23)cc1 is 3.9

###

Test: Cytotoxicity against human A549 cells assessed as inhibition of cell growth
Format: toxicity, cell-based
measured property: IC50 (µM)
Return type: number; implicit unit µM.

Record O=[N+]([O-])c1ccc(C(c2c[nH]c3ccc(Br)cc23)c2c[nH]c3ccc(Br)cc23)cc1 . Reported IC50: 4.5

###

Assay: Cytotoxicity against human HKC-8 cells assessed as inhibition of cell growth
Format: toxicity, cell-based
measured property: IC50 (µg/mL)
Only the number, expressed in µg/mL, is required.

According to the records, this molecule S=C=NCCn1ccc2ccccc21 displays IC50 of 2
